- target-or-test-system: Mu-type opioid receptor (Cavia porcellus, UniProt P97266)
- Sequence (P97266 whole entry): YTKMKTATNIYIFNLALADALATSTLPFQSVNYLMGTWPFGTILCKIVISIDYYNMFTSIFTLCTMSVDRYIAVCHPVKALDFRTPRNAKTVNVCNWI
- run-description: Antagonist activity on agonist stimulated [35S]GTP-gamma-S, binding in guinea pig caudate membranes (10 uM DAMGO as the agonist ligand for mu-receptor)
- Assay type: functional, cell membranes
pKi: −log10 of the molar value.

compound	pKi
Oc1ccc2c3c1O[C@H]1c4[nH]c5c(c4C[C@@]4(O)[C@@H](C2)N(CC2CC2)CC[C@]314)C[C@@]1(O)[C@H]2Cc3ccc(O)c4c3[C@@]1(CCN2CC1CC1)[C@H]5O4 [NORBINALTORPHIMINE]	7.83
Oc1ccc2c3c1O[C@H]1c4[nH]c5ccccc5c4C[C@@]4(O)[C@@H](C2)N(CC2CC2)CC[C@]314 [NALTRINDOLE]	8.74
